molecular target: recombinant human GST-Syk (Homo sapiens (Human)); experiment: Homogeneous Time-Resolved Fluorescence (HTRF) assay for the recombinant human Syk enzyme; conditions: recombinant human GST-Syk 5 pM, ATP 25 μM, read-out: rhSyk IC50
experimental endpoint: IC50 (nM)

Worked cases, IC50 given:
Cc1cc(Nc2cc(C(F)(F)F)ccn2)nc(-c2ccc(NC3CCN(C(=O)c4ccc(C(F)(F)F)cc4)CC3)nc2)c1: 56
Cc1cc(Nc2cc(C(F)(F)F)ccn2)nc(-c2ccc(NC3CCN(C(=O)c4ccc5sc(C)nc5c4)CC3)nc2)c1: 6

I: Cc1cc(Nc2cc(C(F)(F)F)ccn2)nc(-c2ccc(NC3CCN(C(=O)c4cccc5c4-c4ccccc4C5)CC3)nc2)c1
II: Cc1cc(Nc2cc(C(F)(F)F)ccn2)nc(-c2ccc(NC3CCN(C(=O)Cc4cccc(C#N)c4)CC3)nc2)c1
// max by IC50 over [ I , II ] Lab log: write the label of the selected item as the result.
I
(I: 141 nM, II: 3 nM)

----------
target: recombinant human GST-Syk (Homo sapiens (Human), UniProt P43405); test: Homogeneous Time-Resolved Fluorescence (HTRF) assay for the recombinant human Syk enzyme; settings: recombinant human GST-Syk 5 pM, ATP 25 μM, read-out: rhSyk IC50
pIC50: −log10 of the molar value.
experimental endpoint: pIC50

I: Cc1cc(Nc2cc(C(F)(F)F)ccn2)nc(-c2ccc(C3(O)CCN(C(=O)c4ccc5cc[nH]c5n4)CC3)nc2)c1
II: Cc1cc(Nc2cc(C(F)(F)F)ccn2)nc(-c2ccc(NC3CCN(C(=O)c4ccccn4)CC3)nc2)c1
III: CC(=O)N1CCC(Nc2ccc(-c3cc(C)cc(Nc4cc(C(F)(F)F)ccn4)n3)cn2)CC1
IV: Cc1cc(Nc2cc(C(F)F)ccn2)nc(-c2ccc(C(C)(O)[C@H]3CC[C@H](C(=O)OC(C)OC(=O)C(C)C)CC3)nc2)c1 (single isomer, unassigned) [Example 21-4]
rank_up(items): orders items by reported pIC50 in ascending numerical order. Write the labels, ordered according to the request.
IV, I, III, II
(IV: 7.64, I: 8.05, III: 8.40, II: 8.70)

I: Cc1cc(Nc2cc(C(F)(F)F)ccn2)nc(-c2ccc(NC3CCN(C(=O)c4cn(C)c5ccccc45)CC3)nc2)c1
II: Cc1cc(Nc2cc(C(F)(F)F)ccn2)nc(-c2ccc(NC3CCN(C(=O)Cc4ccccc4C#N)CC3)nc2)c1
III: Cc1cc(Nc2cc(C(F)(F)F)ccn2)nc(-c2ccc(NC3CCN(C(=O)c4cccc5c4C(=O)c4ccccc4-5)CC3)nc2)c1
Rank items: key pIC50, increasing. Form entry: ranked labels (order as requested).
III, I, II

1: Cc1cc(Nc2cc(C(F)(F)F)ccn2)nc(-c2ccc(NC3CCN(C(=O)c4ccc(C#N)cc4)CC3)nc2)c1
2: Cc1cc(Nc2cc(C(F)(F)F)ccn2)nc(-c2ccc(NC3CCN(C(=O)c4cccc(-c5ccncc5)c4)CC3)nc2)c1
Thinking about recorded pIC50 values, which is higher, 1 or 2 ? Field: selected label. Fill in the label of the entry you choose.
1
(1: 8.40, 2: 7.92)

1: Cc1cc(Nc2cc(C(F)(F)F)ccn2)nc(-c2ccc(NC3CCN(C(=O)c4cnc5ccc(C)cc5c4)CC3)nc2)c1
2: Cc1cc(Nc2cc(C(F)(F)F)ccn2)nc(-c2ccc(C3(O)CCN(C(=O)c4ccc5nc(C)c(C)nc5c4)CC3)nc2)c1
Between the two listed entries 1 and 2 , which has its pIC50 at the higher number? Your choice should be expressed through its label.
2
(2: 8.30, 1: 8.00)
